# System: anaplastic large cell lymphoma cells (DEL)
# Test Details: In vitro potency (CellTiter-Glo, 96 h), DEL
# Assay type: cell-based
# Condition Details: Table 28, CPT free drugs, anaplastic large cell lymphoma cells DEL, CellTiter-Glo, read-out: DEL IC50
Listed here are compounds together with their documented IC50.
Write the answer as a number in nM, unit excluded.

| Record Smiles | Units Label | Readout Number |
| --- | --- | --- |
| CC[C@@]1(O)C(=O)OCc2c1cc1n(c2=O)Cc2c-1nc1cc(F)c(C)c(C3=CCOC3)c1c2CN | nM | 3 |
| CC[C@@]1(O)C(=O)OCc2c1cc1n(c2=O)Cc2c-1nc1cc3c(cc1c2CN)COC3 | nM | 6 |

Proceed to the following item.
Incoming: Recorded IC50 for CC[C@@]1(O)C(=O)OCc2c1cc1n(c2=O)Cc2c-1nc1cc(F)c(C)c(-c3ccc(CO)s3)c1c2CN , please?
Outgoing: 4

* * *

# Tested on: non-small-cell lung cancer cells (Calu1)
# Test Details: In vitro potency (CellTiter-Glo, 96 h), Calu1
# Assay type: cell-based
# Condition Details: Homo sapiens, Calu-1, 96 h, read-out: Calu1 IC50
pIC50: −log10 of the molar value.
Please enter true where pIC50 is greater than or equal to 7, and false where it is lower.

Past entries and their recorded results:
| Compound | Class Assignment |
| --- | --- |
| CC[C@@]1(O)C(=O)OCc2c1cc1n(c2=O)Cc2c-1nc1cc3c(cc1c2CN(C)C)OCO3 | false |
| CC[C@@]1(O)C(=O)OCc2c1cc1n(c2=O)Cc2c-1nc1cc3c(cc1c2CNCC(O)CN1CCCCC1)OCO3 (stereo partly drawn) | false |
| CC[C@@]1(O)C(=O)OCc2c1cc1n(c2=O)Cc2c-1nc1cc3c(cc1c2CN)CCO3 | true |
| CC[C@@]1(O)C(=O)OCc2c1cc1n(c2=O)Cc2c-1nc1cc3c(cc1c2CNCCCS(N)(=O)=O)OCO3 | false |
| CC[C@@]1(O)C(=O)OCc2c1cc1n(c2=O)Cc2c-1nc1cc(F)c(C)c(C=C(C)C)c1c2CN | true |

Consider now this further compound.
Incoming: Could you verify whether the entry CC[C@@]1(O)C(=O)OCc2c1cc1n(c2=O)Cc2c-1nc1cc3c(cc1c2CNCCS(N)(=O)=O)OCO3 shows pIC50 of no less than 7?
Outgoing: false

* * *

# Test system: breast cancer cells (MDA-MB-231)
# Test Details: In vitro potency (CellTiter-Glo, 96 h), MDA-MB-231
# Type: cell-based
# Condition Details: Homo sapiens, MDA-MB-231, 96 h, read-out: MDAMB231 IC50, Table 29; CPT free drugs; breast cancer cells MDA-MB-231; 96 h, CellTiter-Glo
IC50 vs 200 nM: less than gives criterion met; not less than gives criterion not met.

Past entries and their recorded results:
| Molecule | Class Assignment |
| --- | --- |
| CC[C@@]1(O)C(=O)OCc2c1cc1n(c2=O)Cc2c-1nc1cc3c(cc1c2CNC1CCN(C)CC1)OCO3 [Compound 7w] | criterion met |
| CC[C@@]1(O)C(=O)OCc2c1cc1n(c2=O)Cc2c-1nc1cc3c(cc1c2CNC[C@@H](O)CN1CCCCC1)OCO3 [Compound 7z] | criterion not met |

Incoming: I'd appreciate it if you could check whether CC[C@@]1(O)C(=O)OCc2c1cc1n(c2=O)Cc2c-1nc1cc3c(cc1c2CNCCCN1CCN(C)CC1)OCO3 [Compound 7h] has IC50 smaller than 200 nM.
Outgoing: criterion met

Incoming: Subsequent entry: CC[C@@]1(O)C(=O)OCc2c1cc1n(c2=O)Cc2c-1nc1cc3c(cc1c2CNC1CCNCC1)OCO3 [Compound 8e]
Outgoing: criterion met

Incoming: Subsequent entry: CC[C@@]1(O)C(=O)OCc2c1cc1n(c2=O)Cc2c-1nc1cc3c(cc1c2CNCCN1CCNCC1)OCO3 [Compound 8b]
Outgoing: criterion not met

Incoming: Subsequent entry: CC[C@@]1(O)C(=O)OCc2c1cc1n(c2=O)Cc2c-1nc1cc3c(cc1c2CN1CCC(N)CC1)OCO3 [Compound 8f]
Outgoing: criterion not met

Incoming: Subsequent entry: CC[C@@]1(O)C(=O)OCc2c1cc1n(c2=O)Cc2c-1nc1cc3c(cc1c2CNC[C@H](O)CO)OCO3 [Compound 7n]
Outgoing: criterion met
